These entries and their values trace back to PubChem BioAssay AID1845197.

Tested on: 349418-098-R tumor spheroid viability
Experiment: Anticancer human tumor 349418-098-R patient-derived lung adenocarcinoma cell line growth inhibition
Conditions: curve of first compound; second compound 10 µM; spheroids with HUVEC and MSC
Experimental: Multicellular complex tumor spheroid response to DNA repair inhibitors in combination with DNA-damaging drugs This study explores the anticancer activities of DNA-damaging drugs and inhibitors of DNA damage repair, both as single agents and in combinations. […] Twenty-six patient-derived or established malignant cell lines were evaluated representing sarcoma, melanoma, small cell lung cancer (SCLC), non-small cell lung cancer (NSCLC), as well as bladder, ovarian and pancreatic cancers. […]
Task for the reader: assign each of the following compounds its reported pIC50.
Recall that pIC50 is obtained by taking minus log10 of the concentration measured in molar.

Would you please give the reported pIC50 of O=C(c1cc(Cc2n[nH]c(=O)c3ccccc23)ccc1F)N1CCN(C(=O)C2CC2)CC1 + Cn1nnc2c(C(N)=O)ncn2c1=O with 349418-098-R tumor spheroid viability?
4.63

Report the value of pIC50 obtained on 349418-098-R tumor spheroid viability for Cc1cc(C)c(CNC(=O)c2cc(-c3ccc(CN4CCOCC4)cc3)cc3c2cnn3C2CCCC2)c(=O)[nH]1 + Cn1nnc2c(C(N)=O)ncn2c1=O .
5.12

Give pIC50 for this entry on 349418-098-R tumor spheroid viability: CC1COCCN1c1cc(-c2ccnn2C)c2ccnc(-c3ccn[nH]3)c2n1 (stereo not given) + Cn1nnc2c(C(N)=O)ncn2c1=O
7.21

Output reported pIC50 of the compound Cn1ncnc1[C@H]1c2n[nH]c(=O)c3cc(F)cc(c23)N[C@@H]1c1ccc(F)cc1 + Cn1nnc2c(C(N)=O)ncn2c1=O on 349418-098-R tumor spheroid viability.
5.96

Supply pIC50 measured with 349418-098-R tumor spheroid viability for CC(C)n1c(=O)n(C)c2cnc3cc(F)c(-c4ccc(OCCCN5CCCCC5)nc4)cc3c21 + Cn1nnc2c(C(N)=O)ncn2c1=O .
5.03

Name the value of pIC50 reported for COc1ccc([C@@H](O)c2cc(-c3ncnc4cc(N5CCOCC5)ccc34)c(F)cc2Cl)nn1 + Cn1nnc2c(C(N)=O)ncn2c1=O when tested on 349418-098-R tumor spheroid viability.
5.29

System 349418-098-R tumor spheroid viability. Read-out pIC50. Item Cc1sc2c(c1C)C(c1ccc(Cl)cc1)=NC(CC(=O)Nc1ccc(O)cc1)c1nnc(C)n1-2 (stereo not given) + Cn1nnc2c(C(N)=O)ncn2c1=O . Report value.
6.89

Specify pIC50 for CNCc1ccc(-c2cc(-c3nc(-c4ccc(S(=O)(=O)C(C)C)cc4)cnc3N)on2)cc1 + Cn1nnc2c(C(N)=O)ncn2c1=O , system 349418-098-R tumor spheroid viability.
6.40

###

system: 349418-098-R tumor spheroid viability; assay: Anticancer human tumor 349418-098-R cell line growth inhibition; details: second compound 0.0003 µM; first compound 0.316 µM; stronger effect = lower value; spheroids with HUVEC and MSC;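 also: spheroids exposed to compound for 7 days before measurement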;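 as to viability, T/C: percent of vehicle control viability with 100% = DMSO-treated spheroids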
Readout: viability, T/C (%)
Note: unit % is implicit; provide only the numeric part.

Kindly indicate its recorded viability, T/C. Item: Cc1cc(C)c(CNC(=O)c2cc(-c3ccc(CN4CCOCC4)cc3)cc3c2cnn3C2CCCC2)c(=O)[nH]1 + COc1cc2c(cc1O)CCNC21CSC2c3c(OC(C)=O)c(C)c4c(c3C(COC1=O)N1C(O)C3Cc5cc(C)c(OC)c(O)c5C(C21)N3C)OCO4
98.1

Give the reported viability, T/C for this compound. CC1COCCN1c1cc(-c2ccnn2C)c2ccnc(-c3ccn[nH]3)c2n1 (stereo unspecified) + COc1cc2c(cc1O)CCNC21CSC2c3c(OC(C)=O)c(C)c4c(c3C(COC1=O)N1C(O)C3Cc5cc(C)c(OC)c(O)c5C(C21)N3C)OCO4
5.77

Note down viability, T/C recorded for CC(C)n1c(=O)n(C)c2cnc3cc(F)c(-c4ccc(OCCCN5CCCCC5)nc4)cc3c21 + COc1cc2c(cc1O)CCNC21CSC2c3c(OC(C)=O)c(C)c4c(c3C(COC1=O)N1C(O)C3Cc5cc(C)c(OC)c(O)c5C(C21)N3C)OCO4
31.7

Item COc1ccc([C@@H](O)c2cc(-c3ncnc4cc(N5CCOCC5)ccc34)c(F)cc2Cl)nn1 + COc1cc2c(cc1O)CCNC21CSC2c3c(OC(C)=O)c(C)c4c(c3C(COC1=O)N1C(O)C3Cc5cc(C)c(OC)c(O)c5C(C21)N3C)OCO4 : provide viability, T/C
60

Supply reported viability, T/C belonging to this compound: COc1cc(C)[nH]c(=O)c1CN1CCc2c(Cl)cc(C(OC)C3COC3)c(Cl)c2C1=O (stereo unspecified) + COc1cc2c(cc1O)CCNC21CSC2c3c(OC(C)=O)c(C)c4c(c3C(COC1=O)N1C(O)C3Cc5cc(C)c(OC)c(O)c5C(C21)N3C)OCO4
84.3

Look up and report measured viability, T/C for this entry: [2H]c1nc(C)nc([2H])c1-c1cc(NC[C@@H](C)c2cccc3c(C(=O)NC)ccnc23)ncn1 + COc1cc2c(cc1O)CCNC21CSC2c3c(OC(C)=O)c(C)c4c(c3C(COC1=O)N1C(O)C3Cc5cc(C)c(OC)c(O)c5C(C21)N3C)OCO4
92.7

###

system: 349418-098-R tumor spheroid viability; assay: Anticancer human tumor 349418-098-R cell line growth inhibition; settings: second compound 31.6 µM; first compound 3 µM; spheroids with HUVEC and MSC; active means viability on the fitted dose curve at most 10% of control; inactive means the rest;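 also: spheroids exposed to compound for 7 days before measurement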
Result category, one only: 1.0 = active, 0.0 = inactive

Fill in: this test's call for Cn1ncnc1[C@H]1c2n[nH]c(=O)c3cc(F)cc(c23)N[C@@H]1c1ccc(F)cc1 + Cn1nnc2c(C(N)=O)ncn2c1=O is ___
1.0

Could you kindly confirm the outcome this assay logged for O=C(c1cc(Cc2n[nH]c(=O)c3ccccc23)ccc1F)N1CCN(C(=O)C2CC2)CC1 + Cn1nnc2c(C(N)=O)ncn2c1=O ?
0.0

Hello, I am checking results. What call was entered for CNCc1ccc(-c2cc(-c3nc(-c4ccc(S(=O)(=O)C(C)C)cc4)cnc3N)on2)cc1 + Cn1nnc2c(C(N)=O)ncn2c1=O ?
1.0

What was the test verdict on Cc1sc2c(c1C)C(c1ccc(Cl)cc1)=NC(CC(=O)Nc1ccc(O)cc1)c1nnc(C)n1-2 (centres undefined) + Cn1nnc2c(C(N)=O)ncn2c1=O ?
1.0

###

test system: 349418-098-R tumor spheroid viability; assay: Anticancer human tumor 349418-098-R cell line growth inhibition; conditions: curve of first compound; second compound 1 µM; spheroids with HUVEC and MSC;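 also: spheroids exposed to compound for 7 days before measurement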
pIC50: −log10 of the molar value.
Readout: pIC50

Look up and report measured pIC50 (349418-098-R tumor spheroid viability) for the following compound: [2H]c1nc(C)nc([2H])c1-c1cc(NC[C@@H](C)c2cccc3c(C(=O)NC)ccnc23)ncn1 + Cn1nnc2c(C(N)=O)ncn2c1=O
< 5.00

Look up 349418-098-R tumor spheroid viability data: pIC50 of CNCc1ccc(-c2cc(-c3nc(-c4ccc(S(=O)(=O)C(C)C)cc4)cnc3N)on2)cc1 + Cn1nnc2c(C(N)=O)ncn2c1=O , then report it.
6.56

Provide pIC50, recorded with 349418-098-R tumor spheroid viability, of COc1cc(C)[nH]c(=O)c1CN1CCc2c(Cl)cc(C(OC)C3COC3)c(Cl)c2C1=O (centres undefined) + Cn1nnc2c(C(N)=O)ncn2c1=O
< 5.00

Find pIC50 for O=C(c1cc(Cc2n[nH]c(=O)c3ccccc23)ccc1F)N1CCN(C(=O)C2CC2)CC1 + Cn1nnc2c(C(N)=O)ncn2c1=O on 349418-098-R tumor spheroid viability and write it down.
< 4.52

###

tested on: 349418-098-R tumor spheroid viability; experiment: Anticancer human tumor 349418-098-R cell line growth inhibition; conditions: second compound 0.03 µM; first compound 0.949 µM; stronger effect = lower value; spheroids with HUVEC and MSC;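 also: spheroids exposed to compound for 7 days before measurement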;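 as to viability, T/C: percent of vehicle control viability with 100% = DMSO-treated spheroids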
For each record, write down the corresponding viability, T/C.
The response must be a number in % with no trailing unit.

Give the value of viability, T/C reported for the following: O=C(c1cc(Cc2n[nH]c(=O)c3ccccc23)ccc1F)N1CCN(C(=O)C2CC2)CC1 + CC[C@@]1(O)C(=O)OCc2c1cc1n(c2=O)Cc2cc3c(CN(C)C)c(O)ccc3nc2-1
61.5

Note viability, T/C for the molecule shown: Cc1sc2c(c1C)C(c1ccc(Cl)cc1)=NC(CC(=O)Nc1ccc(O)cc1)c1nnc(C)n1-2 (centres undefined) + CC[C@@]1(O)C(=O)OCc2c1cc1n(c2=O)Cc2cc3c(CN(C)C)c(O)ccc3nc2-1
0.64

Please report viability, T/C for the following molecule: CNCc1ccc(-c2cc(-c3nc(-c4ccc(S(=O)(=O)C(C)C)cc4)cnc3N)on2)cc1 + CC[C@@]1(O)C(=O)OCc2c1cc1n(c2=O)Cc2cc3c(CN(C)C)c(O)ccc3nc2-1
3.96

State its viability, T/C: Cn1ncnc1[C@H]1c2n[nH]c(=O)c3cc(F)cc(c23)N[C@@H]1c1ccc(F)cc1 + CC[C@@]1(O)C(=O)OCc2c1cc1n(c2=O)Cc2cc3c(CN(C)C)c(O)ccc3nc2-1
18.3
